// reported aPTT ratio (INR) per item
Tested on: blood coagulation
testSummary: PT and aPTT assay in cynomolgus monkeys (Example 45)
Assay type: in vivo
assayContext: day 50; escalating dose regimen; platelet poor plasma

>  <substance>
ISIS 416850: MOE gapmer, nucleobases 1275 to 1318 of SEQ ID NO: 1 (Table 8) (antisense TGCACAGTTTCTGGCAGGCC; MOE gapmer, wing and gap sizes not given here)

>  <systemName>
blood coagulation

>  <aPTT ratio (INR)>
1.68

$$$$
>  <substance>
ISIS 416838: MOE gapmer, nucleobases 1018 to 1042 of SEQ ID NO: 1 (Table 6) (antisense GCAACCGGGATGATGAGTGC; MOE gapmer, wing and gap sizes not given here)

>  <systemName>
blood coagulation

>  <aPTT ratio (INR)>
1.25

$$$$
>  <substance>
ISIS 417002: MOE gapmer, nucleobases 1275 to 1318 of SEQ ID NO: 1 (Table 8) (antisense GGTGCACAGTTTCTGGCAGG; MOE gapmer, wing and gap sizes not given here)

>  <systemName>
blood coagulation

>  <aPTT ratio (INR)>
1.18

$$$$
>  <substance>
ISIS 416858: MOE gapmer, nucleobases 1275 to 1318 of SEQ ID NO: 1 (Table 8) (antisense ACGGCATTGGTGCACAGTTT; MOE gapmer, wing and gap sizes not given here)

>  <systemName>
blood coagulation

>  <aPTT ratio (INR)>
1.55

$$$$
>  <substance>
ISIS 416864: MOE gapmer, nucleobases 1275 to 1318 of SEQ ID NO: 1 (Table 8) (antisense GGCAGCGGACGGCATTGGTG; MOE gapmer, wing and gap sizes not given here)

>  <systemName>
blood coagulation

>  <aPTT ratio (INR)>
1.26

$$$$

====

// reported Change in Liver weight per item
testSummary: Tolerability in CD1 mice: body weight and organ weight (Example 43)
Format: in vivo
assayContext: 50 mg/kg s.c. twice per week for 6 weeks, end of study
Strand notation (5' to 3'): a small letter for the sugar, then the base; units joined by * are phosphorothioate-linked, units joined directly phosphodiester-linked; [ ] holds rarer units or linkages, { } end groups; capitals alone tell only the bases. e = 2'-O-(2-methoxyethyl) (MOE); [5mC] = 5-methylcytosine; d = 2'-deoxy (DNA)
quantity: Change in Liver weight

>  <substance>
ISIS 449711: 3-8-3, 4-8-4, 2-10-2, 3-10-3 or 4-10-4 MOE microwalk gapmer (Table 46) (antisense eA*e[5mC]*dA*dG*dT*dT*dT*d[5mC]*dT*dG*dG*d[5mC]*eA*eG)

>  <quantity>
Change in Liver weight

>  <reading>
+18%

$$$$
>  <substance>
ISIS 449710: 3-8-3, 4-8-4, 2-10-2, 3-10-3 or 4-10-4 MOE microwalk gapmer (Table 46) (antisense e[5mC]*eA*e[5mC]*dA*dG*dT*dT*dT*d[5mC]*dT*dG*dG*d[5mC]*eA*eG*eG)

>  <quantity>
Change in Liver weight

>  <reading>
+6%

$$$$
>  <substance>
ISIS 449709: 3-8-3, 4-8-4, 2-10-2, 3-10-3 or 4-10-4 MOE microwalk gapmer (Table 46) (antisense eG*e[5mC]*eA*e[5mC]*dA*dG*dT*dT*dT*d[5mC]*dT*dG*dG*d[5mC]*eA*eG*eG*e[5mC])

>  <quantity>
Change in Liver weight

>  <reading>
+15%

$$$$
>  <substance>
ISIS 449708: 3-8-3, 4-8-4, 2-10-2, 3-10-3 or 4-10-4 MOE microwalk gapmer (Table 46) (antisense eA*e[5mC]*eA*dG*dT*dT*dT*d[5mC]*dT*dG*dG*e[5mC]*eA*eG)

>  <quantity>
Change in Liver weight

>  <reading>
+17%

$$$$
>  <substance>
ISIS 449707: 3-8-3, 4-8-4, 2-10-2, 3-10-3 or 4-10-4 MOE microwalk gapmer (Table 46) (antisense e[5mC]*eA*e[5mC]*eA*dG*dT*dT*dT*d[5mC]*dT*dG*dG*e[5mC]*eA*eG*eG)

>  <quantity>
Change in Liver weight

>  <reading>
+11%

$$$$
